Reference for the values: patent US20250108139A1

- System: PSMA-positive 22rv1 tumor-bearing mouse
- assay.details: 177Lu labeling and animal biodistribution experiment, gamma counter
- Format: in vivo
- condition.summary: 177Lu-labeled compound, 24 h after tail vein injection, n = 2
measure: Kidney uptake (% ID/g)
Your answer is read as % ID/g, so omit the unit and give the number.

Field: example entries. Status: answers known.
compound | subject.of.test | Kidney uptake [% ID/g]
O=C(O)CC[C@H](NC(=O)N[C@@H](CCCCNC(=O)[C@H](Cc1ccc2ccccc2c1)NC(=O)c1ccc2c(c1)CCN(C(=O)CCC(=O)NCC(=O)N1CN(C(=O)CNC(=O)CCC(=O)N3CCc4cc(C(=O)N[C@@H](Cc5ccc6ccccc6c5)C(=O)NCCCC[C@H](NC(=O)N[C@@H](CCC(=O)O)C(=O)O)C(=O)O)ccc4C3)CN(C(=O)CNC(=O)CN3CCN(CC(=O)O)CCN(CC(=O)O)CCN(CC(=O)O)CC3)C1)C2)C(=O)O)C(=O)O [DB-14] | PSMA-positive 22rv1 tumor-bearing mouse | 31.72
O=C(O)CC[C@H](NC(=O)NC(CCCCNC(=O)[C@H](Cc1ccc2ccccc2c1)NC(=O)[C@H]1CC[C@H](NC(=O)CCC(=O)NCCCC[C@H](NC(=O)CCC(=O)N[C@H]2CC[C@H](C(=O)N[C@@H](Cc3ccc4ccccc4c3)C(=O)NCCCC[C@H](NC(=O)N[C@@H](CCC(=O)O)C(=O)O)C(=O)O)CC2)C(=O)NCCNC(=O)CN2CCN(CC(=O)O)CCN(CC(=O)O)CCN(CC(=O)O)CC2)CC1)C(=O)O)C(=O)O (stereo partly drawn) [DB-16] | PSMA-positive 22rv1 tumor-bearing mouse | 5.135

The record that follows has no Kidney uptake shown yet.
Briefly, Kidney uptake measured for O=C(O)CC[C@H](NC(=O)NC(CCCCNC(=O)[C@H](Cc1ccc2ccccc2c1)NC(=O)[C@H]1CC[C@H](NC(=O)CCC(=O)NCC(=O)N2CN(C(=O)CNC(=O)CCC(=O)N[C@H]3CC[C@H](C(=O)N[C@@H](Cc4ccc5ccccc5c4)C(=O)NCCCC[C@H](NC(=O)N[C@@H](CCC(=O)O)C(=O)O)C(=O)O)CC3)CN(C(=O)CNC(=O)CN3CCN(CC(=O)O)CCN(CC(=O)O)CCN(CC(=O)O)CC3)C2)CC1)C(=O)O)C(=O)O (stereo partly drawn) [DB-13] : 2.890

----------
- System: PSMA-positive 22rv1 tumor-bearing mouse
- assay.details: 177Lu labeling and animal biodistribution experiment, gamma counter
- Type: in vivo
- condition.summary: 177Lu-labeled compound, 24 h after tail vein injection, n = 2
- Protocol: Distribution in PSMA-positive tumor-bearing mouse tissues: Tumor-bearing animals (purchased from Shanghai Alamo Pharmaceutical Technology Co., Ltd.) were subcutaneously inoculated with 3×10^6 22rv1 cells (in 50% Matrigel, Corning) into the right shoulder region of 6-9 week old (Balb/c Nude) mouse. […] Blood was collected through the abdominal aorta and 100 μL was immediately quantified into designated centrifuge tubes (weighed). […] Samples were measured on the day of collection. […]
Measured Tumor uptake, listed per entry.
Your answer is read as % ID/g, so omit the unit and give the number.

compound | units.text | Tumor uptake
O=C(O)CC[C@H](NC(=O)N[C@@H](CCCCNC(=O)[C@H](Cc1ccc2ccccc2c1)NC(=O)c1ccc2c(c1)CCN(C(=O)CCC(=O)NCCCC[C@H](NC(=O)CCC(=O)N1CCc3cc(C(=O)N[C@@H](Cc4ccc5ccccc5c4)C(=O)NCCCC[C@H](NC(=O)N[C@@H](CCC(=O)O)C(=O)O)C(=O)O)ccc3C1)C(=O)NCCNC(=O)CN1CCN(CC(=O)O)CCN(CC(=O)O)CCN(CC(=O)O)CC1)C2)C(=O)O)C(=O)O | % ID/g | 41.83
O=C(O)CC[C@H](NC(=O)NC(CCCCNC(=O)[C@H](Cc1ccc2ccccc2c1)NC(=O)c1ccc(C2CCN(C(=O)CCC(=O)NCCCC[C@H](NC(=O)CCC(=O)N3CCC(c4ccc(C(=O)N[C@@H](Cc5ccc6ccccc6c5)C(=O)NCCCC[C@H](NC(=O)N[C@@H](CCC(=O)O)C(=O)O)C(=O)O)cc4)CC3)C(=O)NCCNC(=O)CN3CCN(CC(=O)O)CCN(CC(=O)O)CCN(CC(=O)O)CC3)CC2)cc1)C(=O)O)C(=O)O (stereo partly drawn) | % ID/g | 41.73

The record that follows has no Tumor uptake shown yet.
Briefly, Tumor uptake measured for O=C(O)CC[C@H](NC(=O)NC(CCCCNC(=O)[C@H](Cc1ccc2ccccc2c1)NC(=O)[C@H]1CC[C@H](NC(=O)CCC(=O)NCC(=O)N2CN(C(=O)CNC(=O)CCC(=O)N[C@H]3CC[C@H](C(=O)N[C@@H](Cc4ccc5ccccc5c4)C(=O)NCCCC[C@H](NC(=O)N[C@@H](CCC(=O)O)C(=O)O)C(=O)O)CC3)CN(C(=O)CNC(=O)CN3CCN(CC(=O)O)CCN(CC(=O)O)CCN(CC(=O)O)CC3)C2)CC1)C(=O)O)C(=O)O (stereo partly drawn) : 16.195
